Data credit: PubChem BioAssay (NCI)

- Tested on: U251 CNS
- MEASUREMENT_DESCRIPTION: NCI-60 one-dose screen, 48 h (100 = growth as untreated, 0 = no growth, -100 = all killed)
- RUN_PARAMETERS: 10 µM unless noted
The panel holds about 83,000 compounds, 20% with a hit somewhere; the sample as a whole holds those more often.
Returns yes if the recorded growth is greater than or equal to 20%, and no otherwise.

Take a look at these entries with their results.
>  <STRUCTURE>
O=C(CCCCCCNC(=O)C(O)(O)C(F)(F)F)Nc1nc2ccccc2s1

>  <GROUP>
no

$$$$
>  <STRUCTURE>
CCOC(=O)c1cccnc1Nc1ccc(NC(=O)Nc2ccc(Cl)c(C(F)(F)F)c2)cc1

>  <GROUP>
yes

$$$$

Input: API: above_or_equal(metric=growth, cutoff=20%) for item "COc1ccccc1/C=C/C(=O)c1nnn(-c2ccc(F)cc2)c1C"
Output: yes

Input: API: above_or_equal(metric=growth, cutoff=20%) for item "COc1ccc(/C=N/NC(=O)CSc2nc(-c3cnccn3)cc(-c3cccs3)c2C#N)cc1OC"
Output: yes

Input: API: above_or_equal(metric=growth, cutoff=20%) for item "Cc1ccc(S(=O)(=O)c2nc(-c3ccc(F)cc3)oc2S(C)(=O)=O)cc1"
Output: yes

Input: API: above_or_equal(metric=growth, cutoff=20%) for item "CN1CCN(Cc2ccc(NC(=O)c3cncc(C#Cc4cnc5ccc(OCC6COC6)nn45)c3)cc2C(F)(F)F)CC1"
Output: no

Input: API: above_or_equal(metric=growth, cutoff=20%) for item "CC(=C(c1ccc(OCCCN(C)C)cc1)c1ccc(OCCCN(C)C)cc1)c1ccc(Cl)cc1"
Output: yes

Input: API: above_or_equal(metric=growth, cutoff=20%) for item "CN1CCN(Cc2ccc(NC(=O)c3cncc(C#Cc4cnc5ccc(NCCO)nn45)c3)cc2C(F)(F)F)CC1"
Output: no

Input: API: above_or_equal(metric=growth, cutoff=20%) for item "Nc1nc(=O)n([C@H]2C[C@H](O)[C@@H](CO)O2)cc1C=O"
Output: yes

---

Known growth of a selection of compounds
- Test system: COLO 205 colon
- MEASUREMENT_DESCRIPTION: NCI-60 one-dose screen, 48 h (100 = growth as untreated, 0 = no growth, -100 = all killed)
- RUN_PARAMETERS: 10 µM unless noted
Compounds without any hit were thinned out: in the full panel of roughly 83,000, 20% have a hit.
// note: answer is a bare numeric in %

Previously resolved entries follow.
>  <STRUCTURE>
Cc1ccc(-c2csc(N/N=C/c3cccs3)n2)cc1

>  <UNIT_TEXT>
%

>  <growth>
115

$$$$
>  <STRUCTURE>
Cc1ccc(N2CCN(C3=C(Cl)C(=O)c4ncccc4C3=O)CC2)cc1

>  <UNIT_TEXT>
%

>  <growth>
75.3

$$$$
>  <STRUCTURE>
O=C1[C@H]2Cc3c([nH]c4ccccc34)[C@H](c3ccc(Br)cc3)N2C(=O)CN1C1CCN(CC2CCCCC2)CC1

>  <UNIT_TEXT>
%

>  <growth>
81.3

$$$$
>  <STRUCTURE>
COc1ccc2c(c1)c(-c1nnc(N)nc1-c1c[nH]c3ccc(F)cc13)cn2C

>  <UNIT_TEXT>
%

>  <growth>
41.4

$$$$
>  <STRUCTURE>
COc1cc(C(C)=C(c2ccc(OCCN(C)C)cc2)c2ccc(OCCN(C)C)cc2)ccc1F

>  <UNIT_TEXT>
%

>  <growth>
104

$$$$

Lab note: measured growth of "N#Cc1c(-c2ccc(Br)cc2)cc(-c2c[nH]c3ccccc23)nc1N" was 51.5

Lab note: measured growth of "NC(=S)n1c(=O)n(-c2cccc(C(F)(F)F)c2)c(=O)c2cc(-c3ccc(F)cc3F)ccc21" was 37.5

Lab note: measured growth of "N#Cc1c(-c2cccs2)cc(-c2cnccn2)nc1SCC(=O)N/N=C/c1ccccc1" was 66.2

Lab note: measured growth of "CN1CCC[C@]2(C)[C@H]3CC[C@@H]4[C@@H]5[C@H]6OC[C@@]5(CCC6(C)C)CC[C@@]4(C)[C@]3(C)CC[C@H]2C1(C)C" was -8.01

Lab note: measured growth of "O=C(CSc1nc2ccccc2c(=O)n1-c1ccccc1)Nc1ccc(S(=O)(=O)Nc2nccs2)cc1" was 103

Lab note: measured growth of "Nc1ncc(-c2ccc3ncnc(NCc4ccccc4)c3c2)cn1" was 69.3

Lab note: measured growth of "C#C[C@]1(O)CC[C@H]2[C@@H]3CC=C4c5sc(NCc6ccccc6)nc5CC[C@]4(C)[C@H]3CC[C@@]21C" was 37

Lab note: measured growth of "CCCCCCNC(=O)Oc1ccc(/C(=C(/C)c2ccc(OC)cc2)c2ccc(OCCN3CCCCCC3)cc2)cc1" was -60.5

Lab note: measured growth of "COc1ccc([C@@H]2C(=O)N(c3cc(OC)c(OC)c(OC)c3)[C@H]2c2ccc(OC)c(O)c2)cc1" was -79.3

Lab note: measured growth of "CC(C)(C)Nc1nc2c(OCCc3ccccc3)cccn2c1-c1cccc(Oc2ccccc2)c1" was -93.8
